target: human Cot/Tpl2 kinase (Homo sapiens); construct: human Cot/Tpl2 kinase construct encoding residues 30-398; 6His (N); made in house; host or cells: Sf9 insect cells, baculovirus system (BD Biosciences); experiment: Tpl2/Cot kinase assay: GST-MEK1 phosphorylation detected by ELISA (DELFIA Eu); assay type: biochemical; details: Table 2; Tpl2/Cot kinase, GST-MEK1 substrate, 50 uM ATP
Sequence (P41279 30-398): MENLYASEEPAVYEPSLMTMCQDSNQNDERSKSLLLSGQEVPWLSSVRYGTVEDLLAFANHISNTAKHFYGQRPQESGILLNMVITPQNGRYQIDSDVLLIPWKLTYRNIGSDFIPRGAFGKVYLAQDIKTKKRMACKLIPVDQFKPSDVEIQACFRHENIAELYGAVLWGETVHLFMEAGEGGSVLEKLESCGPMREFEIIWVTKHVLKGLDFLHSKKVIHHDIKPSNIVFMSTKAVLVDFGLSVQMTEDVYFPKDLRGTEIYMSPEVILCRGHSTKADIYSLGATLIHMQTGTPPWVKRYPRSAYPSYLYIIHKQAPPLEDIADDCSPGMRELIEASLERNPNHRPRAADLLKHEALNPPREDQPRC
pIC50: −log10 of the molar value.
Property name: pIC50

Known pIC50 results, listed for orientation:
COc1cc(NCCN2CCOCC2)cc2c(Nc3ccc(F)c(Cl)c3)c(C#N)cnc12 | 5.28
N#Cc1cnc2c(Br)cc(NCc3cn(Cc4ccccn4)nn3)cc2c1Nc1ccc(F)c(Cl)c1 | 7.48
CCOC(=O)CNc1cc(Cl)c2ncc(C#N)c(Nc3ccc(F)c(Cl)c3)c2c1 | 5.85
N#Cc1cnc2c(Cl)cc(NCc3cn(CCCN4CCNCC4)nn3)cc2c1Nc1ccc(F)c(Cl)c1 | 6.80
N#Cc1cnc2c(Cl)cc(NCc3cn(CCc4ccccn4)nn3)cc2c1Nc1ccc(F)c(Cl)c1 | 7.60
CONC(=O)CNc1cc(Cl)c2ncc(C#N)c(Nc3ccc(F)c(Cl)c3)c2c1 | 6.80

P = N#Cc1cnc2ccc(NCc3cccnc3)cc2c1NC1CCCC1
Q = CC1CC(C)CN(CCCn2cc(CNc3cc(Cl)c4ncc(C#N)c(Nc5ccc(F)c(Cl)c5)c4c3)nn2)C1 (stereo not drawn)
Of P and Q , which one carries the higher reported pIC50? Answer format: the label of the selected item.
Q
(Q: 6.82, P: 5.59)

The values you see were collected from patent US20060264460A1.
